Target: S-methyl-5'-thioadenosine phosphorylase (Homo sapiens)
Sequence (whole entry): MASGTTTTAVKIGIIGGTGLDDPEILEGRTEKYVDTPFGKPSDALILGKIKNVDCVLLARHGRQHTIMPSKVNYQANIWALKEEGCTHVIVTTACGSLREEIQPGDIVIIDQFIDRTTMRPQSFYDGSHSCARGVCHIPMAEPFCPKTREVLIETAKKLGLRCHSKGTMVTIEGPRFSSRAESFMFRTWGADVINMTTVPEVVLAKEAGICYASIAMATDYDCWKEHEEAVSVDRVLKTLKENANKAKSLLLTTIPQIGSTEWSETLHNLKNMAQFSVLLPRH
Assay: Kcat against human methylthioadenosine phosphorylase expressed in Escherichia coli BL21 DE3 cells
Readout: K cat (s⁻¹)

Nc1ncnc2c1ncn2[C@@H]1O[C@H](CSCCc2ccccc2)[C@@H](O)[C@H]1O : 2.14
CSC[C@H]1O[C@@H](n2cnc3c(N)ncnc32)[C@H](O)[C@@H]1O (stereo in doubt; 1) : 4.6
Nc1ncnc2c1ncn2[C@@H]1O[C@H](CSc2ncc[nH]2)[C@@H](O)[C@H]1O : 3.8
C[C@H]1O[C@@H](n2cnc3c(N)ncnc32)[C@H](O)[C@@H]1O : 4.8
Nc1ncnc2c1ncn2[C@@H]1O[C@H](CSc2ccccc2)[C@@H](O)[C@H]1O : 1.5
Cc1ccc(SC[C@H]2O[C@@H](n3cnc4c(N)ncnc43)[C@H](O)[C@@H]2O)cc1 : 1.4

(I) CCCCSC[C@H]1O[C@@H](n2cnc3c(N)ncnc32)[C@H](O)[C@@H]1O
(II) Cc1cccc(SC[C@H]2O[C@@H](n3cnc4c(N)ncnc43)[C@H](O)[C@@H]2O)c1
Problem: I or II : whose K cat is greater? Lab note: record the label of whichever item you select.
Solution: I
(I: 5.9 s⁻¹, II: 2.4 s⁻¹)
